tested.target: Alpha-bungarotoxin (Bungarus multicinctus) (UniProt P60615)
Sequence (P60615 whole entry, looked up): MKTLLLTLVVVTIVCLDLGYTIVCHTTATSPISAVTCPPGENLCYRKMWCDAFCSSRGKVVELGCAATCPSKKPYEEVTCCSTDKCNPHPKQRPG
method: alpha-bungarotoxin binders on microarray, profiling panel, artefact control for SMM control protein annotation, biochemical, small-molecule microarray, Alexa647 label, 635/667 nm fluorescence (AID 1117)
experimental.context: alpha-BTX-A647 binding fluorescence, higher = more signal
Please enter Criterion met where composite z-score is greater than or equal to 1, and Criterion not met where it is lower.

Example entries and their recorded answers appear below.
>>> category("COCC(=C=CC[C@@H](O)c1cccc(OCCO)c1)C[C@@H](O)COCc1ccccc1")
"Criterion not met"
>>> category("CN1C(=O)C2C(C1=O)C1C=C(c3ccc(CO)cc3)C2C(c2cccs2)N1C (stereo not drawn)")
"Criterion met"
>>> category("COC(=O)[C@@]1(Cc2ccc(F)cc2)[C@H]2c3cc(C(=O)N4CCCC4)n(CCO)c3C[C@H]2CN1C(=O)c1ccccc1")
"Criterion not met"

Please indicate if the recorded composite z-score for COCCOC(=O)N1C(=O)[C@@]2(c3ccccc31)[C@H](c1ccc(OCCO)cc1)N1[C@H](c3ccccc3)[C@H](c3ccccc3)OC(=O)[C@H]1[C@@H]2C(=O)N1CCN(c2ncccn2)CC1 meets or exceeds 1.
Criterion met

Is composite z-score for CCOC(=O)C[C@H]1[C@H](OC(=O)Cc2ccc3c(c2)OCO3)[C@@H](NC(=O)c2ccccc2)c2cc(OCCCO)ccc2N1C(=O)Cc1ccc(OC)cc1 at or above 1?
Criterion not met

Test whether the compound CC(C)C[C@@H]1NC(=O)C([C@@H](C)OCc2ccccc2)NC(=O)[C@@]23C(=O)N[C@@H](Cc4ccccc4)C2[C@H](C)[C@@]2(C)O[C@H]2C3/C=C/CC/C=C/CNC1=O (stereo partly drawn) records composite z-score of 1 or higher.
Criterion not met

Does the reported composite z-score for [N-]=[N+]=NCc1ccccc1[C@H]1OC(c2ccc(OCCCO)cc2)=N[C@@]1(Cc1ccccc1)C(=O)N1CCOCC1 fall at or above the 1 mark?
Criterion met

Reported composite z-score at or above 1? COCCOC(=O)N1C(=O)[C@@]2(c3cc(C#CCC(C(=O)OC)C(=O)OC)ccc31)[C@H](C(N)=O)[C@H]1C(=O)O[C@H](c3ccccc3)[C@H](c3ccccc3)N1[C@@H]2c1ccc(OCCO)cc1
Criterion met

Decide: is the reported value of composite z-score for O=C1O[C@H](c2ccccc2)[C@H](c2ccccc2)N2[C@H]1[C@@H](C(=O)N1CCN(c3ncccn3)CC1)[C@]1(C(=O)Nc3ccccc31)[C@H]2c1ccc(O)cc1 equal to or greater than 1?
Criterion not met

Form field: composite z-score at least 1? Entry: CC(C)(C)N1CC=CC23O[C@@H]4/C=C\CCCOC(=O)C4[C@H]2C(=O)N(CCCCCCO)[C@@H]3C1=O (stereo partly drawn)
Criterion not met

# bool: composite z-score of C=CCNC(=O)[C@H]1[C@@H]2C(=O)O[C@@H](c3ccccc3)[C@@H](c3ccccc3)N2[C@@H](c2ccccc2OCCO)[C@]12C(=O)N(C(=O)OCCOC)c1ccccc12 >= 1
Criterion met

Could you please find out whether C=C(CCCC)C(=O)CC[C@H](OC(C)=O)c1ccccc1OCCO has composite z-score that meets 1 or exceeds it?
Criterion not met

In plain terms: is recorded composite z-score at least 1 for COC(=O)C(CC#Cc1ccc2c(c1)[C@]1(C(=O)N2)[C@H](c2ccc(O)cc2)N2[C@H](c3ccccc3)[C@H](c3ccccc3)OC(=O)[C@H]2[C@@H]1C(=O)N1CCc2cc(OC)c(OC)cc2C1)C(=O)OC ?
Criterion met
